Reported Activity by item:
assay: Antioxidant activity assessed as DPPH free radical scavenging activity at 50 uM after 30 mins by UV-spectrophotometric method relative to control; type: functional
Lab book: enter the figure in %, no units written.

Consider the reported Activity for these molecules:
# MOL, Activity / %
records = [
    ("COc1cc(/C=C/c2nc3cc(Cl)cnc3n(CC(=O)O)c2=O)ccc1O", 81.8),
    ("O=C(O)Cn1c(=O)c(/C=C/c2ccc(O)c(O)c2)nc2cccnc21", 78.4),
]

Exam item: Query: Activity; subject: `COc1cc(/C=C/c2nc3cc(Br)cnc3n(CC(=O)O)c2=O)ccc1O`
Marked response: 75.4

Exam item: Do the same for `O=C(O)Cn1c(=O)c(/C=C/c2ccc(O)cc2)nc2cc(Br)cnc21` please
Marked response: 43.8

Exam item: Do the same for `COc1cc(/C=C/c2nc3cccnc3n(CC(=O)O)c2=O)ccc1O` please
Marked response: 75.6

Exam item: Do the same for `COc1ccc(/C=C/c2nc3cccnc3n(CC(=O)O)c2=O)cc1` please
Marked response: 39.1

Exam item: Do the same for `O=C(O)Cn1c(=O)c(/C=C/c2ccc(O)c(O)c2)nc2cc(Br)cnc21` please
Marked response: 82.4

Exam item: Do the same for `O=C(O)Cn1c(=O)c(-c2cc(O)c(O)c(O)c2)nc2cccnc21` please
Marked response: 62.4
